B1: tRNA (parent)
chain: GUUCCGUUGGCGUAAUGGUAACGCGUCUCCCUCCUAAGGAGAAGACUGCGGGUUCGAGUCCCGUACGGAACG

# Variants of: B1
# experiment-summary: yeast fitness relative to wild type (ratio to wild type); higher = fitter; tRNA-Arg(CCU), competitive growth, 37 C, YPD
Variants at the floor of the assay were thinned out.
property: yeast fitness

Field: example entries. Status: answers known.
- record-sequence: "GUUCCGUUGGCGUAGUGGUAACGCGUCUCCCUCCUAAGGCGAAGACUGCAGGUUCGAGUCCCGUACGGAACG"
  yeast fitness: "≤ 0.5"
- record-sequence: "GUUCCGUUGGCGUAAUGGUAACGGGUCUGCCUCCUAGGGAGAAGACUGCGGAUUCGAGUCCUGUACGGAACG"
  yeast fitness: "≤ 0.5"
- record-sequence: "GUUCCGUUGGCGUAAUGGUAACGCGUCUCCCUCCUACGGAGCAGAAUGCGGGUUCGAGUCCCGUACGGACCG"
  yeast fitness: "≤ 0.5"
- record-sequence: "GUUCGGUUGGCGUAUUGGUAACGCGUCUCCCUCCAAAGGAGAAGACUGCAGGUGCGAGUCCCGUACGGAACG"
  yeast fitness: "≤ 0.5"
- record-sequence: "GUUCCGUUGGCGUAUUGGUAACGCGUCUCCAUCCUAAGGAGAAGACUGCGGGUUCGAGUGCCGUACGGAACG"
  yeast fitness: "≤ 0.5"

yeast fitness lookup needed for GUUCCGUCGGCGUAAUGGUAACGCGUUUCCAUCCUAAGGAGAAGACUGCGGGUUCGAGUCCCGUACGGAACG , thanks.
0.56

yeast fitness lookup needed for GUUCGGUUGGCGUAAUGGUAACGCGUCUCCCUCCUAAGGAGAAGACUGCGGGGUCGAGUACCGUACGGAACG , thanks.
≤ 0.5

yeast fitness lookup needed for GUUCCGUUGGCGUAAUGGUAACGUGUCUCCCUCCUAAGGCGAAGACUGCGGCUUCGAGUCCCGUACAGAACG , thanks.
≤ 0.5

yeast fitness lookup needed for GUUAGGUUGGCGUAAUGGUAACGCGUCUCCCUCCUUAGGAGAAGACUGCGGGUUCGAGUCCCAUACGGAACG , thanks.
≤ 0.5

yeast fitness lookup needed for GAUCCGUUGGCGUAAUGGUAACGCGUCUCCCUCCUAAGGAGAAGACUGCGGGUCCGAGUCCCGUACGGAACG , thanks.
0.932

yeast fitness lookup needed for GUUCCGUUGGCGUAAUGGUAACGGGACUCCCUUCUAAGGAGAAGACUGCGGGUACGAGUCCCGUACGGAACG , thanks.
0.609
